target: L-lactate dehydrogenase (Plasmodium falciparum (isolate CDC / Honduras)) (UniProt Q27743); test: PfLDH activity inhibition – cell lysate, 3D7 strain, counter-screen for P. falciparum growth inhibition project (AID 2304);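 also: 0% = vehicle and 100% = reference inhibitor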; conditions: P. falciparum 3D7 crude extract, LDH APAD/NBT absorbance; at 2 µM; hits give high values
Sequence (Q27743 whole entry, looked up): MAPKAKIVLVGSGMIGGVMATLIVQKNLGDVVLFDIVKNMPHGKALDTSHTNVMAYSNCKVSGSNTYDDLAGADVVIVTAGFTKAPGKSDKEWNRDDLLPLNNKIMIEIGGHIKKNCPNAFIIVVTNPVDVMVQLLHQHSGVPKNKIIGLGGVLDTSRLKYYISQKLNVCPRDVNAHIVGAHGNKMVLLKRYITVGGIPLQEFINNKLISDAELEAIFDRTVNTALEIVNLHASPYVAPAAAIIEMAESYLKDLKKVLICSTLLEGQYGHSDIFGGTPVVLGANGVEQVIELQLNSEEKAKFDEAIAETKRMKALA
Calls of active or inactive are those of the source. No rule for the calls is given here.
METRIC: inhibition

Below are worked cases with known answers.
MOLECULE | EXPERIMENTAL_TARGET | MEASURED_VALUE
O=C(c1cccs1)N(Cc1cccc(-c2ccc(CNC3CCCC3)cc2)c1)C1CCN(Cc2ccccc2)CC1 | L-lactate dehydrogenase (Plasmodium falciparum (isolate CDC / Honduras)) (UniProt Q27743) | 0% (inactive)
CC(C)(C)c1ccc(Cn2nc(C(=O)N3CCN(C(=O)C4CCCO4)CC3)c3ccccc32)cc1 (stereo not drawn) | L-lactate dehydrogenase (Plasmodium falciparum (isolate CDC / Honduras)) (UniProt Q27743) | -3% (inactive)
CC[C@H]1CN2CC[C@H]1C[C@H]2[C@H](O)c1ccnc2ccc(OC)cc12 | L-lactate dehydrogenase (Plasmodium falciparum (isolate CDC / Honduras)) (UniProt Q27743) | -4% (inactive)
CC(C)CCNC(=O)c1cc(C(=O)c2cc(F)ccc2O)cn(CCC(C)C)c1=O | L-lactate dehydrogenase (Plasmodium falciparum (isolate CDC / Honduras)) (UniProt Q27743) | -1% (inactive)
CCC1(C)CC(CCNCc2ccccc2O)(c2ccc(F)cc2)CCO1 (stereo not drawn) | L-lactate dehydrogenase (Plasmodium falciparum (isolate CDC / Honduras)) (UniProt Q27743) | 6% (inactive)

Continue with the next molecule.
Prompt: Reported inhibition, molecule CC[C@H]1CN2CC[C@H]1C[C@H]2[C@H](O)c1cc(-c2ccccc2C)nc2ccc(OC)cc12 : ____
Completion: 2% (inactive)
